System: AMPK-α (phospho-Thr172)
Test: AMPK activation, western blot of phospho-AMPK-α in MDBK cells
Format: cell-based, Bos taurus
Details: Experiment 3, 18 hours
Experimental: MDBK cells were seeded at 1 × 10^6 cells per 6 cm dish in DMEM containing 10 % FBS. […] The cell lysate was centrifuged at 14,000 × g for 20 min at 4 °C and the protein concentration of the supernatant determined by bicinchoninic acid assay. The lysate was analyzed using Novex 3–12 % bis-Tris gels run in 3-(N-morpholino)propanesulfonic acid (MOPS) buffer (20 μg of protein per lane) followed by transfer to low fluorescence polyvinylidene fluoride membranes by wet transfer. […]
Label rule, in plain words: p-alpha / AMPK beta normalised to control of 3 and up is met, under 3 is not met.

q: Form field: p-alpha / AMPK beta normalised to control at least 3? Entry: CC(C)N=C(N)N=C(N)N [compound 4]
a: met

q: Form field: p-alpha / AMPK beta normalised to control at least 3? Entry: [H]/N=C(\N/C(=N/[H])Nc1ccc(Cl)cc1)NC(C)C [proguanil, reference compound]
a: not met

q: Form field: p-alpha / AMPK beta normalised to control at least 3? Entry: N=C(N)NC(N)=Nc1ccccc1 [compound 2, phenyl biguanide]
a: not met

q: Form field: p-alpha / AMPK beta normalised to control at least 3? Entry: NC(N)=NC(N)=NCc1ccccc1 [compound 3, 2-benzyl-1-(diaminomethylidene)guanidine]
a: met

q: Form field: p-alpha / AMPK beta normalised to control at least 3? Entry: CC(C)N=C(N)N=C(N)NC(C)C [compound 5]
a: not met

q: Form field: p-alpha / AMPK beta normalised to control at least 3? Entry: NC(N)=NC(N)=NCCc1ccc(Cl)cc1 [compound 1]
a: met

###

experiment: Octanol/PBS partition coefficient, shake-flask method; format: physicochemical; details: 32 °C, pH 7.4, n = 3
Could you mark each record label 1 if its logP falls strictly under 0.1, and label 0 if it equals or exceeds it?

q: Is 0.1 strictly greater than the compound's reported logP? compound: N=C(N)NC(N)=Nc1ccccc1 [compound 2, phenyl biguanide]
a: label 1

q: Is 0.1 strictly greater than the compound's reported logP? compound: CC(C)N=C(N)N=C(N)N
a: label 1

q: Is 0.1 strictly greater than the compound's reported logP? compound: NC(N)=NC(N)=NCCc1ccc(Cl)cc1
a: label 0

q: Is 0.1 strictly greater than the compound's reported logP? compound: CC(C)N=C(N)N=C(N)NC(C)C
a: label 0

q: Is 0.1 strictly greater than the compound's reported logP? compound: NC(N)=NC(N)=NCc1ccccc1
a: label 1

###

Field: p-ACC. Provide a value for each of the molecules that follow.
tested on: acetyl-coA carboxylase (phospho-Ser79); assay: AMPK activation, western blot of phospho-acetyl-coA carboxylase in MDBK cells; format: cell-based, Bos taurus; settings: Experiment 1, 18 hours, band intensity
Just the number, please, no unit after it.

q: Fill in: p-ACC of N=C(N)NC(N)=Nc1ccccc1 [compound 2, phenyl biguanide] is ___
a: 118

q: Fill in: p-ACC of NC(N)=NC(N)=NCc1ccccc1 [compound 3, 2-benzyl-1-(diaminomethylidene)guanidine] is ___
a: 1150

q: Fill in: p-ACC of [H]/N=C(/N)N/C(=N/[H])NCCc1ccccc1 [phenformin, reference compound] is ___
a: 586

q: Fill in: p-ACC of CC(C)N=C(N)N=C(N)NC(C)C [compound 5] is ___
a: 131

q: Fill in: p-ACC of NC(N)=NC(N)=NCCc1ccc(Cl)cc1 [compound 1] is ___
a: 848

q: Fill in: p-ACC of CC(C)N=C(N)N=C(N)N [compound 4] is ___
a: 1170

q: Fill in: p-ACC of [H]/N=C(\N/C(=N/[H])Nc1ccc(Cl)cc1)NC(C)C [proguanil, reference compound] is ___
a: 161

###

Biological target: bovine heart mitochondrial membranes (complex I) (Bos taurus, UniProt P03887+P03898+P17694+P42026)
Sequence (P42026 38-216): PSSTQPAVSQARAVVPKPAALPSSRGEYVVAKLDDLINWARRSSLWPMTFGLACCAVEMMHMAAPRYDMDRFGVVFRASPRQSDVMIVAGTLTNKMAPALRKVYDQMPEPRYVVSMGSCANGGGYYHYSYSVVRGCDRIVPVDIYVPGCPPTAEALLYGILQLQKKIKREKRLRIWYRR
Sequence (P17694 34-463): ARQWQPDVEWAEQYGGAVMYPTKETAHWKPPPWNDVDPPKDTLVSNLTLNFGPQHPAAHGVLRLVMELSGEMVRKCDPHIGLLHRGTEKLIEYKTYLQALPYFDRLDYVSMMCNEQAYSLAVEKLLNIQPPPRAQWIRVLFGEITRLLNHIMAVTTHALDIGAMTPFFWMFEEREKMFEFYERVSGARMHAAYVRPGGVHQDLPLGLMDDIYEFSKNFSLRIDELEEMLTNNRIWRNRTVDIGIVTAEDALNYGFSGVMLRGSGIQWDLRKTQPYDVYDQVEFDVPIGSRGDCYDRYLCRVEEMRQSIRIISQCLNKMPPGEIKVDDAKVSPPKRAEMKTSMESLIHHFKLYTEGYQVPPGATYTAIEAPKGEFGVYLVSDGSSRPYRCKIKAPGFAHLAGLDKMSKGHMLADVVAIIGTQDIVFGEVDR
Sequence (P03887 whole entry): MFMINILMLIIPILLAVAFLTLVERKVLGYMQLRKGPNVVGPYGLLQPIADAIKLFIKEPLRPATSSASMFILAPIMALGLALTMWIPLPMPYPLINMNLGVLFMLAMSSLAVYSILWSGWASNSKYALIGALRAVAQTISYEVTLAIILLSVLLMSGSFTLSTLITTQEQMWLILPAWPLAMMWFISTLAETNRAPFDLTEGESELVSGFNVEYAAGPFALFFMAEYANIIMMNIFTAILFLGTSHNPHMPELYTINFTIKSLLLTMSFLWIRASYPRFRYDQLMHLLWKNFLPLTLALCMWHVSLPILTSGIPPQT
Sequence (P03898 whole entry): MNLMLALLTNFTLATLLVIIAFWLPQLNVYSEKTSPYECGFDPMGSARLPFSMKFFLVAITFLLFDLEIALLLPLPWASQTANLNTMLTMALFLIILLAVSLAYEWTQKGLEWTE
Test: NADH:O2 oxidoreduction by bovine heart mitochondrial membranes (complexes I-III-IV)
Format: biochemical
Conditions: bovine heart mitochondrial membranes; inhibitor 0.05 mM; read-out: average % (rate, % of no-inhibitor control)
Description: Complex I and mitochondrial membranes were prepared from Bos taurus (bovine) heart. Intact mitochondria were isolated from rat liver and mouse heart and liver. […] Assays were performed at 32 °C in a SpectraMax 96-well plate reader. […] Catalysis was initiated by addition of NADH and maximal rates determined by linear regression. […] Succinate:O2 oxidoreduction was measured using 40 μg mL^−1 membranes in 5 mM succinate in 10 mM Tris-HCl (pH 7.4) as described previously. […]
Assay Endpoint: remaining activity at 50 µM (%)
Give the number; % is assumed, so skip it.

q: Fill in: remaining activity at 50 µM of CC(C)N=C(N)N=C(N)NC(C)C is ___
a: 80.7

q: Fill in: remaining activity at 50 µM of NC(N)=NC(N)=NCc1ccccc1 is ___
a: 88.7

q: Fill in: remaining activity at 50 µM of N=C(N)N=C(N)Nc1ccccc1 is ___
a: 80.9

q: Fill in: remaining activity at 50 µM of NC(N)=NC(N)=NCCc1ccc(Cl)cc1 is ___
a: 77.5

q: Fill in: remaining activity at 50 µM of [H]/N=C(\N/C(=N/[H])Nc1ccc(Cl)cc1)NC(C)C [proguanil, reference compound] is ___
a: 24.9

###

tested on: rat liver mitochondria; experiment: ADP-stimulated rotenone-sensitive OCR in isolated rat liver mitochondria; type: biochemical; parameters: unit not given here; settings: average of replicates
Field: rotenone sensitive OCR after ADP stimulation, average. Provide a value for each of the compounds that follow.
Just the number, please, no unit after it.

q: Fill in: rotenone sensitive OCR after ADP stimulation, average of NC(N)=NC(N)=NCc1ccccc1 is ___
a: 6.59

q: Fill in: rotenone sensitive OCR after ADP stimulation, average of NC(N)=NC(N)=NCCc1ccc(Cl)cc1 is ___
a: 15.13

q: Fill in: rotenone sensitive OCR after ADP stimulation, average of [H]/N=C(/N)N/C(=N/[H])NCCc1ccccc1 [phenformin, reference compound] is ___
a: 6.08

q: Fill in: rotenone sensitive OCR after ADP stimulation, average of CC(C)N=C(N)N=C(N)NC(C)C is ___
a: 25.35

q: Fill in: rotenone sensitive OCR after ADP stimulation, average of CC(C)N=C(N)N=C(N)N is ___
a: 2.45

q: Fill in: rotenone sensitive OCR after ADP stimulation, average of N=C(N)NC(N)=Nc1ccccc1 [compound 2, phenyl biguanide] is ___
a: 25.55

q: Fill in: rotenone sensitive OCR after ADP stimulation, average of [H]/N=C(\N/C(=N/[H])Nc1ccc(Cl)cc1)NC(C)C [proguanil, reference compound] is ___
a: 25.06

###

biological target: bovine heart mitochondrial membranes (complex I) (Bos taurus, UniProt P03887+P03898+P17694+P42026); experiment: NADH:O2 oxidoreduction by bovine heart mitochondrial membranes (complexes I-III-IV); type: biochemical; conditions: bovine heart mitochondrial membranes; inhibitor 0.50 mM; read-out: average % (rate, % of no-inhibitor control)
Could you mark each record Met if its remaining activity at 500 µM falls strictly under 40%, and Not met if it equals or exceeds it?

q: Is 40% strictly greater than the compound's reported remaining activity at 500 µM? compound: NC(N)=NC(N)=NCCc1ccc(Cl)cc1 [compound 1]
a: Not met

q: Is 40% strictly greater than the compound's reported remaining activity at 500 µM? compound: [H]/N=C(\N/C(=N/[H])Nc1ccc(Cl)cc1)NC(C)C [proguanil, reference compound]
a: Met

q: Is 40% strictly greater than the compound's reported remaining activity at 500 µM? compound: CC(C)N=C(N)N=C(N)NC(C)C [compound 5]
a: Not met

q: Is 40% strictly greater than the compound's reported remaining activity at 500 µM? compound: NC(N)=NC(N)=NCc1ccccc1 [compound 3, 2-benzyl-1-(diaminomethylidene)guanidine]
a: Not met

q: Is 40% strictly greater than the compound's reported remaining activity at 500 µM? compound: N=C(N)N=C(N)Nc1ccccc1 [compound2]
a: Not met

###

biological target: isolated bovine heart complex I (Bos taurus, UniProt P03887+P03898+P17694+P42026); assay: NADH:decylubiquinone oxidoreduction by isolated complex I; format: biochemical; details: bovine heart purified mitochondrial complex I; inhibitor 1.00 mM; read-out: average % (rate, % of no-inhibitor control)
Sequence (P42026 38-216): as the sequence (P42026 38-216) above
Sequence (P17694 34-463): as the sequence (P17694 34-463) above
Sequence (P03898 whole entry): as the sequence (P03898 whole entry) above
Sequence (P03887 whole entry): as the sequence (P03887 whole entry) above
Assay Endpoint: remaining activity at 1000 µM
Please provide the amount together with its unit, number first.

q: Fill in: remaining activity at 1000 µM of CC(C)N=C(N)N=C(N)NC(C)C [compound 5] is ___
a: 20.8%

q: Fill in: remaining activity at 1000 µM of N=C(N)N=C(N)Nc1ccccc1 [compound2] is ___
a: 33.6%

q: Fill in: remaining activity at 1000 µM of NC(N)=NC(N)=NCc1ccccc1 [compound 3, 2-benzyl-1-(diaminomethylidene)guanidine] is ___
a: 41%

q: Fill in: remaining activity at 1000 µM of NC(N)=NC(N)=NCCc1ccc(Cl)cc1 [compound 1] is ___
a: 15.1%
